target under test: UniProt P24941
property name: pIC50
Expect pIC50 as a plain number equal to -log10 of the molar concentration.

- molecule smiles: "O=C(Nc1cnccc1-c1ccc(F)cc1)c1ccnc(Nc2ccc(F)cc2)n1"
  pIC50: 6.33

Proceed to the following item.
Give the reported pIC50 for this compound. N#Cc1ccc(Nc2nccc(C(=O)Nc3cnccc3-c3ccc(F)cc3)n2)cc1 6.66

----------
assay: Metabolic stability in human liver microsomes assessed as parent compound remaining at 0.5 uM measured after 10 mins in presence of NADPH by LC-MS/MS analysis
Format: ADME, Microsome
condition context: read-out: Stability
# key: entry, value: remaining at 10 min, 0.5 µM
# value in %; strip the unit string

Report remaining at 10 min, 0.5 µM, nothing else, for this compound: COc1ccc(Nc2nccc(C(=O)Nc3cnccc3-c3ccccc3)n2)cc1F 31

Using known records, supply remaining at 10 min, 0.5 µM for O=C(Nc1cnccc1-c1ccc(F)cc1)c1ccnc(Nc2ccccc2)n1 61

Return the recorded remaining at 10 min, 0.5 µM value; entry: O=C(Nc1cnccc1-c1ccc(F)cc1)c1ccnc(Nc2ccc(F)cc2)n1 67

Give the measured remaining at 10 min, 0.5 µM for O=C(Nc1cnccc1-c1ccccc1)c1ccnc(Nc2ccc(Cl)cc2)n1 78

Give recorded remaining at 10 min, 0.5 µM. O=C(Nc1cnccc1-c1ccccc1)c1ccnc(Nc2ccc(OC(F)(F)F)cc2)n1 100

In one line, give reported remaining at 10 min, 0.5 µM of the entry O=C(Nc1cncnc1OCC(F)(F)F)c1ccnc(Nc2ccccc2)n1 . 20

Item O=C(Nc1cnccc1-c1ccccc1)c1ccnc(Nc2ccc(C(F)(F)F)cc2)n1 : provide remaining at 10 min, 0.5 µM 83

Kindly indicate its recorded remaining at 10 min, 0.5 µM. Item: N#Cc1ccc(Nc2nccc(C(=O)Nc3cnccc3-c3ccccc3)n2)c(Cl)c1 77

// fetch remaining at 10 min, 0.5 µM given entry O=C(Nc1cnccc1N1CCC(F)(F)CC1)c1ccnc(Nc2ccccc2)n1 21

Report remaining at 10 min, 0.5 µM, nothing else, for this compound: COc1ccc(Nc2nccc(C(=O)Nc3cnccc3-c3ccccc3)n2)cc1 21
